Tested on: MCF7
Assay summary: In vitro antiproliferative activity against MCF-7 cell line (human breast tumor) at 1 uM concentration
Assay type: functional
Readout type: inhibition at 1 µM (%)

>>> endpoint_result("Cc1nn(C)c(Oc2ccccc2)c1/C=N/OCCN1CCN(Cc2ccc(C(=O)OC(C)(C)C)cc2)CC1")
32
>>> endpoint_result("Cc1nn(C)c(Oc2ccccc2)c1/C=N/OCCN1CCCC1")
7.7
>>> endpoint_result("Cc1nn(C)c(Oc2ccccc2)c1/C=N/OCCN1CCOCC1")
5.4
>>> endpoint_result("COc1ccc(CO/N=C/c2c(C)nn(C)c2Oc2ccc(Cl)cc2)cc1")
37
>>> endpoint_result("Cc1ccc(CO/N=C/c2c(C)nn(C)c2Oc2ccccc2)cc1")
38.2
>>> endpoint_result("Cc1nn(C)c(Oc2ccccc2)c1/C=N/OCCN1CCN(Cc2ccccc2)CC1")
23.4
>>> endpoint_result("Cc1c(CO/N=C/c2c(-c3ccccc3)nn(-c3ccccc3)c2Oc2ccc(Cl)cc2)cccc1-c1ccccc1")
-17.5
>>> endpoint_result("COC(=O)c1ccc(CO/N=C/c2c(C)nn(C)c2Oc2ccc(Cl)cc2)cc1")
33.6
>>> endpoint_result("Cc1nn(-c2ccccc2)c(Oc2ccc(Cl)cc2)c1/C=N/OCc1ccc(C(=O)OC(C)(C)C)cc1")
-8.4

====

Tested on: HepG2
Assay summary: In vitro antiproliferative activity against HepG2 cell line (human liver tumor) at 1 uM concentration
Type: functional
Listed molecules paired with reported inhibition at 1 µM
Readout type: inhibition at 1 µM (%)

>>> endpoint_result("Cc1nn(C)c(Oc2ccccc2)c1/C=N/OCc1cccc(-c2ccccc2)c1C")
-13.2
>>> endpoint_result("CCOC(=O)c1ccc(CO/N=C/c2c(C)nn(-c3ccccc3)c2Oc2ccc(Cl)cc2)cc1")
-31.8
>>> endpoint_result("Cc1nn(C)c(Oc2ccccc2)c1/C=N/OCCN1CCCC1")
-25
>>> endpoint_result("COC(=O)c1ccc(CO/N=C/c2c(C)nn(C)c2Oc2ccc(Cl)cc2)cc1")
20.3
>>> endpoint_result("COc1cccc(CO/N=C/c2c(C)nn(C)c2Oc2ccccc2)c1")
-41.2
>>> endpoint_result("Cc1nn(C)c(Oc2ccccc2)c1/C=N/OCCN1CCCCC1")
-29
>>> endpoint_result("Cc1nn(C)c(Oc2ccccc2)c1/C=N/OCCN1CCN(Cc2ccccc2)CC1")
6.7
>>> endpoint_result("Cc1nn(C)c(Oc2ccccc2)c1/C=N/OCCN(C)C")
-36.1
>>> endpoint_result("COc1ccc(CO/N=C/c2c(C)nn(C)c2Oc2ccc(Cl)cc2)cc1")
13.9
>>> endpoint_result("CCOC(=O)c1ccc(CO/N=C/c2c(C)nn(C)c2Oc2ccc(Cl)cc2)cc1")
27.4
>>> endpoint_result("Cc1nn(-c2ccccc2)c(Oc2ccc(Cl)cc2)c1/C=N/OCc1ccc(C(=O)OC(C)(C)C)cc1")
-31.1
>>> endpoint_result("Cc1nn(C)c(Oc2ccccc2)c1/C=N/OCc1ccc([N+](=O)[O-])cc1")
-2.8
>>> endpoint_result("Cc1nn(-c2ccccn2)c(Oc2ccccc2)c1/C=N/OCc1ccc(C(=O)OC(C)(C)C)cc1")
-25.1
>>> endpoint_result("CC(C)c1nn(-c2ccccc2)c(Oc2ccc(Cl)cc2)c1/C=N/OCc1ccc(C(F)(F)F)cc1")
-2.2
